Assay: qHTS Assay for Lipid Storage Modulators in Drosophila S3 Cells;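 further: cells counted by Cell Tracker Red CMTPX staining in the red channel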
Details: BODIPY lipid droplet fluorescence, 18-24 h, cells fed with added oleic acid; measured here: cell count max response
The campaign covered roughly 320,000 compounds. About 2,100 (0.66%) were called active. Not shown: some 53% with an inconclusive outcome. The sample holds actives, similar compounds and a random draw of the others, so the mix is not that of the screen.
For each entry below, report its cell number change value.
Write it as a number; the unit % goes unstated.

Can you look up the measured cell number change of CCCc1cc(=O)oc2cc(C)cc(OCC(=O)NCCCn3ccnc3)c12 for me?
0.597

Give its cell number change value. Item: COCCn1c(SCC(=O)NC(C)c2ccc(F)cc2)nc2ccccc21 (configuration not stated)
25.2

For the molecule Cn1ccs/c1=N\S(=O)(=O)c1ccc(C(C)(C)C)cc1 , what cell number change is on record?
-15.3

Which cell number change value belongs to CCCc1cc(=O)oc2cc(C)cc(OCC(=O)NCc3ccncc3)c12 ?
4.58

Returns the measured cell number change for the input molecule. Input: O=C(NN(CC(O)COc1ccccc1)CC(O)COc1ccccc1)c1ccccc1 (configuration not stated)
-5.14

Recorded cell number change of CC1(C(=O)NCc2ccccc2)Oc2ccccc2NC1=O (configuration not stated) , please.
-4.11

Name the reported cell number change value associated with the molecule CC(=O)c1ccc([N+](=O)[O-])c(CS(=O)(=O)c2ccc(Cl)cc2)c1
12.3

Endpoint output: cell number change of O=C(COc1ccc(Br)cc1)NCCCn1ccnc1 . Value?
9.25

// lookup cell number change for Cc1[nH]c(C)c(S(=O)(=O)NCCc2ccccc2)c1C(=O)N1CCCC1
13.4

If you can, please state the reported cell number change value of Cc1cc(OCC(=O)NNC(=S)NCC2CCCO2)cc(C)c1Cl (configuration not stated) .
-9.63

Returns the measured cell number change for the input molecule. Input: O=C(CCc1nnc2ccc(NCc3ccccc3Cl)nn12)NC1CCCC1
3.96

Item CCCN1CCN(CCCNC(=O)c2ccc3nc(N4CCC(C)CC4)sc3c2)CC1 has what recorded cell number change?
-11.1

Entry Cc1c(C)c2ccc(OCC(=O)Nc3ccccn3)c(C)c2oc1=O : reported cell number change = ?
15.9

Looking for the measured cell number change of C#CCOc1ccc(C2C3=C(CC(C)(C)CC3=O)N(CC(=O)O)C3=C2C(=O)CC(C)(C)C3)cc1OC , can you help?
-7.42

I'd like to know its cell number change. The molecule in question is CC(C)(C)OC(=O)NOCC(=O)N(Cc1ccccc1)CC(O)COc1ccccc1 (configuration not stated)
-1.25

What measured cell number change goes with O=C(NCC1CCCO1)C(=O)N/N=C\c1ccc2c(c1)OCO2 (configuration not stated) ?
-7.51

cell number change lookup needed for C#CCOc1ccc(C2C3=C(CC(C)(C)CC3=O)N(CC(=O)O)C3=C2C(=O)CC(C)(C)C3)cc1 , thanks.
-0.525

Which cell number change value belongs to CC(C)/C=N/Nc1nc2c(c(=O)n(C)c(=O)n2C)n1C ?
-4.59

Look at this molecule and give its reported cell number change. CCCc1cc(=O)oc2cc(C)cc(OCC(=O)NCc3cccnc3)c12
-12.5

Reported cell number change for CCCNC(=O)COC(=O)c1ccc(N2CCCC2)c([N+](=O)[O-])c1 : what is it?
10

Query: cell number change; subject: COc1ccc(-c2noc(CCC(=O)NCc3cccnc3)n2)cc1OC
-15.7

Which value of cell number change has been reported for COc1ccc(OCC(=O)NCCCn2ccnc2)cc1 in the records?
17.2
